Tested on: CA46
Assay: Cytotoxicity was determined by inhibition against the Burkitt lymphoma CA46 cell line
Assay type: functional, cell-based
Conditions: Homo sapiens
value kind: IC50

Could you share which IC50 value was measured for COc1ccc2c(C(O)c3ccc(OC)c(O)c3)c(-c3cc(OC)c(OC)c(OC)c3)sc2c1 (stereo unspecified) ?
> 1000 nM
